- measurement.notes: Cmax in collagen-induced arthritis Lewis rat
- Format: ADME, organism-based
- measurement.conditions: in vivo

smiles.str	Cmax [nM]
Cc1cccc(C)c1-n1c(=O)c2cnc(Nc3ccc(N4CCN(C)CC4)cc3)nc2n2c3ccccc3nc12	500

---

- experimental.system: Tyrosine-protein kinase ZAP-70 (Homo sapiens, UniProt P43403)
- Sequence (P43403 whole entry): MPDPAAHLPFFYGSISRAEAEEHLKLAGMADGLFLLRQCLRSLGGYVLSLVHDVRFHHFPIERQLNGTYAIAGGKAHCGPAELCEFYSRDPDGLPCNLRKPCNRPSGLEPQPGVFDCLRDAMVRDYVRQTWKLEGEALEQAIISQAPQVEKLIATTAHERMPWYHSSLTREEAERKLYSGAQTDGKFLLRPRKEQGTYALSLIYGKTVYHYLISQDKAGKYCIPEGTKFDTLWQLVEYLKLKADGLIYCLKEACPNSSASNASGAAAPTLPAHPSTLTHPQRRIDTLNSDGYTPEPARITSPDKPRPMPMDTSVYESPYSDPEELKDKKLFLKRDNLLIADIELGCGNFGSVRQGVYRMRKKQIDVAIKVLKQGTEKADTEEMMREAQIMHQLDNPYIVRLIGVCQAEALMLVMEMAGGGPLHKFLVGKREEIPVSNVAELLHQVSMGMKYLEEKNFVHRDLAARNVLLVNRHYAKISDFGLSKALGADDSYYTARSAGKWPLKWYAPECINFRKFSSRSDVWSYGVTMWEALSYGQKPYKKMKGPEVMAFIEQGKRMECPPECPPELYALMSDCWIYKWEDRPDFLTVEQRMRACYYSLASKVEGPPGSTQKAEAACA

smiles.str	experimental.system	IC50, nM
Cc1cccc(C)c1-n1c(=O)c2cnc(Nc3ccc(N4CCN(C)CC4)cc3)nc2n2c3ccccc3nc12	Tyrosine-protein kinase ZAP-70 (Homo sapiens, UniProt P43403)	1500

---

- experimental.system: Proto-oncogene tyrosine-protein kinase Src (Homo sapiens, UniProt P12931)
- Sequence (P12931 2-536 limits assumed): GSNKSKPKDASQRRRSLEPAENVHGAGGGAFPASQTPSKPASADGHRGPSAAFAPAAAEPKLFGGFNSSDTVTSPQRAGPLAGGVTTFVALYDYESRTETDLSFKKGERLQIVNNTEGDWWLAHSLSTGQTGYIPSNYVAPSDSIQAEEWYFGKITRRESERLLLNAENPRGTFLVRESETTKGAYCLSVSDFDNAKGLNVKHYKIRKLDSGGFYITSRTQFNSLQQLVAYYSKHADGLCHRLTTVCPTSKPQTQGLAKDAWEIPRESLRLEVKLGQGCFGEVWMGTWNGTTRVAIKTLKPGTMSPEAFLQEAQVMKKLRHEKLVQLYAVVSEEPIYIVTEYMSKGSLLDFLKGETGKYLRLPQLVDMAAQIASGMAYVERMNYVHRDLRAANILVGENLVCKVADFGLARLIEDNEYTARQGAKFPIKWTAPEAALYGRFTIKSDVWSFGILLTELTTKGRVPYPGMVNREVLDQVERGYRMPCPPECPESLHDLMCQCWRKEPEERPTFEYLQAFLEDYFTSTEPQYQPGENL
pIC50: −log10 of the molar value.
// label = MET if pIC50 is not less than 7, otherwise NOT MET

smiles.str	discrete.label
CN1CCN(c2ccc(Nc3ncc4c(=O)n(-c5c(Cl)cccc5Cl)c5nc6ccccc6n5c4n3)cc2)CC1	MET
COc1cc(Nc2ncc3c(=O)n(-c4c(C)cccc4C)c4nc5ccccc5n4c3n2)ccc1OCCCN1CCN(C)CC1	NOT MET

---

- measurement.notes: Clearance in Sprague-Dawley rat at 2 mg/kg, iv
- Assay type: ADME, organism-based
- Design: dose 2 mg/kg, route intravenous
- measurement.conditions: in vivo

smiles.str	clearance (mL/min/kg)
Cc1cccc(C)c1-n1c(=O)c2cnc(Nc3ccc(N4CCN(C)CC4)cc3)nc2n2c3ccccc3nc12	30

---

pIC50 values by entry
- experimental.system: Mitogen-activated protein kinase 14 (Homo sapiens)
- Sequence (Q16539 whole entry): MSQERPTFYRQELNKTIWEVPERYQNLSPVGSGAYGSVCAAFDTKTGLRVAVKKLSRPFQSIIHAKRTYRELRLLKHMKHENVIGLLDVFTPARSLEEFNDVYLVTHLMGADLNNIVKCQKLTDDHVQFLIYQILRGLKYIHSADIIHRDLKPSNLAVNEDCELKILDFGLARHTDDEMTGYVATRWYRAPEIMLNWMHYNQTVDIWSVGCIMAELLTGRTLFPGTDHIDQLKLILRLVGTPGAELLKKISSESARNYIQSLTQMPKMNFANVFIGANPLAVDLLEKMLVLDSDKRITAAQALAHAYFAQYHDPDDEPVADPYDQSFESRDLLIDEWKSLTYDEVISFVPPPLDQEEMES
- measurement.notes: Inhibition of p38-alpha by HTRF assay
pIC50: −log10 of the molar value.
endpoint: pIC50

smiles.str	endpoint	result.qualifier	reported.result
COc1cc(Nc2ncnc(-n3c(Nc4c(C)cccc4C)nc4ccccc43)n2)cc(OC)c1OC	pIC50	=	7.11
COc1cc(Nc2ncc3c(=O)n(-c4c(C)cccc4C)c4nc5ccccc5n4c3n2)cc(OC)c1OCCN1CCN(C)CC1	pIC50	<	5.00
Cc1cccc(C)c1-n1c(=O)c2cnc(Nc3ccc(OCCCN(C)C)cc3)nc2n2c3ccccc3nc12	pIC50	<	5.00
Cc1cccc(C)c1-n1c(=O)c2cnc(Nc3ccc(OCCN(C)C)cc3)nc2n2c3ccccc3nc12	pIC50	<	5.00
COc1cc(Nc2ncnc(-n3c(Nc4ccccc4)nc4ccccc43)n2)cc(OC)c1OC	pIC50	=	6.33
Cc1cccc(C)c1-n1c(=O)c2cnc(Nc3ccc(N4CCN(C)CC4)cc3)nc2n2c3ccccc3nc12	pIC50	<	5.00
COc1cc(Nc2ncc3c(=O)n(-c4c(C)cccc4C)c4nc5ccccc5n4c3n2)ccc1N1CCN(C)CC1	pIC50	=	5.12
Cc1cccc(C)c1-n1c(=O)c2cnc(Nc3ccc(OCCCN4CCCCC4)cc3)nc2n2c3ccccc3nc12	pIC50	=	5.37

---

- experimental.system: UniProt:P12931
pIC50: −log10 of the molar value.
endpoint: pIC50

smiles.str	reported.result
COc1cc(Nc2ncc3c(=O)n(-c4c(C)cccc4C)c4nc5ccccc5n4c3n2)cc(OC)c1OCCN1CCN(C)CC1	7.11
CN1CCN(c2ccc(Nc3ncc4c(=O)n(-c5c(Cl)cc(Cl)cc5Cl)c5nc6ccccc6n5c4n3)cc2)CC1	7.46
COc1ccc(Cl)cc1-n1c(=O)c2cnc(Nc3ccc(N4CCN(C)CC4)cc3)nc2n2c3ccccc3nc12	5.85
Cc1cccc(-n2c(=O)c3cnc(Nc4ccc(N5CCN(C)CC5)cc4)nc3n3c4ccccc4nc23)c1	6.00
